target: PRKCB1 (human); assay: radiometric filter-binding kinase assay, Kinase HotSpot; details: compound 0.5 µM; ATP 10 µM
Below: a set of entries, each annotated with reported residual activity.

{"smilesRecord": "COc1cc2c(Nc3ccc(Br)cc3F)ncnc2cc1OCC1CCN(C)CC1", "residual activity [%]": 89.1}
{"smilesRecord": "Nc1ncnc2c1cnn2-c1ccccc1", "residual activity [%]": 95.2}
{"smilesRecord": "Cn1cc(/C=C2\\C(=O)Nc3ccc(S(N)(=O)=O)cc32)c2ccccc21", "residual activity [%]": 114}
{"smilesRecord": "COc1cccc(-c2cc(=O)c3ccccc3o2)c1N", "residual activity [%]": 98.5}
{"smilesRecord": "Cc1cc(Nc2nc(-c3ccccc3)nc3ccccc23)n[nH]1", "residual activity [%]": 99.9}
{"smilesRecord": "COc1cc2c(cc1OC)-c1[nH]nc(Nc3cccc(F)c3)c1C2", "residual activity [%]": 96}
{"smilesRecord": "N/C(=N\\N=C/c1ccc(-c2cccc([N+](=O)[O-])c2)o1)N[N+](=O)[O-]", "residual activity [%]": 88.9}
{"smilesRecord": "O=C1NC(=O)c2cc(Nc3ccc(F)cc3)c(Nc3ccc(F)cc3)cc21", "residual activity [%]": 28.2}
{"smilesRecord": "N#Cc1c(NC(=O)c2cccc3ccccc23)sc2c1CCCC2", "residual activity [%]": 90.9}
{"smilesRecord": "O=c1cc(N2CCOCC2)oc2c(-c3ccccc3)cccc12", "residual activity [%]": 96}
{"smilesRecord": "COc1cc2c(N3CCN(C(=O)Nc4ccc(OC(C)C)cc4)CC3)ncnc2cc1OCCCN1CCCCC1", "residual activity [%]": 98.4}

---

biological target: UniProtKB O96013; test: radiometric filter-binding kinase assay, Kinase HotSpot; conditions: compound 0.5 µM; ATP 10 µM
Sequence (O96013 whole entry, looked up): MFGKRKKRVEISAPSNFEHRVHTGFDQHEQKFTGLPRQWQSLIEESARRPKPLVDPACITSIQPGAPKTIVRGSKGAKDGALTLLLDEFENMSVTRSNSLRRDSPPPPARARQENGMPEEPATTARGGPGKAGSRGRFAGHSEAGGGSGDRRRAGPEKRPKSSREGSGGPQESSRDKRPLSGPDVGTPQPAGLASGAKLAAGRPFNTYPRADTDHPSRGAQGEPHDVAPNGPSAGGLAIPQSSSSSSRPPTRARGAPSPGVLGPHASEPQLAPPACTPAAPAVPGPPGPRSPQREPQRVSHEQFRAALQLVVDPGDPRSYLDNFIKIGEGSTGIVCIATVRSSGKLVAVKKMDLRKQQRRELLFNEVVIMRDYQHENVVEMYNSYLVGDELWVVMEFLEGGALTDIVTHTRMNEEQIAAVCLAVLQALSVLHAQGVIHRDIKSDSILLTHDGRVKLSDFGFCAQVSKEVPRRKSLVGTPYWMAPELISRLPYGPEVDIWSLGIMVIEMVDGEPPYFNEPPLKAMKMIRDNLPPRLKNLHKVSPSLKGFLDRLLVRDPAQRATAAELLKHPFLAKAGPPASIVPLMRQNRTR

{"smilesRecord": "O=c1cc(N2CCOCC2)oc2c(-c3ccccc3)cccc12", "residual activity, %": 92.8}
{"smilesRecord": "Cn1cc(/C=C2\\C(=O)Nc3ccc(S(N)(=O)=O)cc32)c2ccccc21", "residual activity, %": 86.2}
{"smilesRecord": "O=C(c1ccccc1)c1ccc(N2CCOCC2)cc1O", "residual activity, %": 104}
{"smilesRecord": "COc1cc2c(cc1OC)-c1[nH]nc(Nc3cccc(F)c3)c1C2", "residual activity, %": 89.9}

---

target: UniProt Q9H093; assay: radiometric filter-binding kinase assay, Kinase HotSpot; details: compound 0.5 µM; ATP 10 µM
Sequence (Q9H093 whole entry, looked up): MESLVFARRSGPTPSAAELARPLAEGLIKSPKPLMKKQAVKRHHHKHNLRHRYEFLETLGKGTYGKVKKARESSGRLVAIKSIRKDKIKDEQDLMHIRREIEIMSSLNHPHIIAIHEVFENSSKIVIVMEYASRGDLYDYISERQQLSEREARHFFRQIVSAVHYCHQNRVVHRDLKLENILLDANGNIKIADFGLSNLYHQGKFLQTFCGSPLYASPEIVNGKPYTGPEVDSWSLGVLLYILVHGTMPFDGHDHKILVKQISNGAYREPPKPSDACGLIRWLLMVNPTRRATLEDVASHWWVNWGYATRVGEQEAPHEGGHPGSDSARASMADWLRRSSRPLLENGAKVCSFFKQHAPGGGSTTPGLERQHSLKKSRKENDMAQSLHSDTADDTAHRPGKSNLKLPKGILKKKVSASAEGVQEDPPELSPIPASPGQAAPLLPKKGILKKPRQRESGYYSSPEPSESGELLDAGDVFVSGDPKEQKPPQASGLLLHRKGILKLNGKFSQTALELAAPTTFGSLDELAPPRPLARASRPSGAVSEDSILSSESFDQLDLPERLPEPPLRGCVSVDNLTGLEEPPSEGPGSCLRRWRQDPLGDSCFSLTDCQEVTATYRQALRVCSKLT

{"smilesRecord": "N#CCCc1ccc2c(c1)-c1[nH]c3ccc([N+](=O)[O-])cc3c1CC(=O)N2", "residual activity": "67.6%"}
{"smilesRecord": "c1ccc(-c2cnc(Nc3ccc(OCCN4CCCC4)cc3)s2)cc1", "residual activity": "107%"}
{"smilesRecord": "N#C/C(=C1/Nc2ccccc2S1)c1ccnc(NCCc2cccnc2)n1", "residual activity": "72.5%"}
{"smilesRecord": "COc1cc2c(Nc3ccc(Br)cc3F)ncnc2cc1OCC1CCN(C)CC1", "residual activity": "100%"}
{"smilesRecord": "COc1cc2c(cc1OC)-c1[nH]nc(Nc3cccc(F)c3)c1C2", "residual activity": "94.6%"}
{"smilesRecord": "FC(F)(F)c1ccc(/C=C/c2nc(COc3ccc(CCCCn4ccnn4)cc3)co2)cc1", "residual activity": "101%"}
{"smilesRecord": "Cc1cc(Nc2nc(-c3ccccc3)nc3ccccc23)n[nH]1", "residual activity": "71.1%"}
{"smilesRecord": "CCCCc1c(-c2ccc(O)cc2)[nH]c2nccnc12", "residual activity": "64.8%"}
{"smilesRecord": "Nc1ncnc2c1cnn2-c1ccccc1", "residual activity": "75.2%"}
{"smilesRecord": "O=c1c(-c2ccc(F)cc2)c(-c2ccncc2)[nH]n1-c1ccc(Cl)cc1", "residual activity": "88.7%"}
{"smilesRecord": "O=C(c1ccccc1)c1ccc(N2CCOCC2)cc1O", "residual activity": "111%"}
{"smilesRecord": "N#Cc1c(NC(=O)c2cccc3ccccc23)sc2c1CCCC2", "residual activity": "76.7%"}
{"smilesRecord": "O=C1NC(=O)c2c1c1c3ccccc3[nH]c1c1[nH]c3cc(Br)ccc3c21", "residual activity": "84.5%"}
{"smilesRecord": "Cn1cc(/C=C2\\C(=O)Nc3ccc(S(N)(=O)=O)cc32)c2ccccc21", "residual activity": "102%"}
{"smilesRecord": "O=c1cc(N2CCOCC2)oc2c(-c3ccccc3)cccc12", "residual activity": "95.1%"}
{"smilesRecord": "N/C(=N\\N=C/c1ccc(-c2cccc([N+](=O)[O-])c2)o1)N[N+](=O)[O-]", "residual activity": "95.2%"}
{"smilesRecord": "O=S(=O)(NCCNC/C=C/c1ccc(Br)cc1)c1cccc2cnccc12", "residual activity": "78.1%"}
{"smilesRecord": "O=C(O)c1ccc2c3c1cccc3c(=O)n1c3ccccc3nc21", "residual activity": "122%"}
{"smilesRecord": "O=C1NC(=O)c2cc(Nc3ccc(F)cc3)c(Nc3ccc(F)cc3)cc21", "residual activity": "112%"}
{"smilesRecord": "COc1cc2ncnc(Nc3ccc(O)c(Br)c3)c2cc1OC", "residual activity": "88.3%"}
{"smilesRecord": "O=c1[nH]c2ccccc2n1C1CCN(Cc2ccc(-c3nc4cc5[nH]cnc5cc4nc3-c3ccccc3)cc2)CC1", "residual activity": "90.4%"}
{"smilesRecord": "CCOc1cc2ncnc(Nc3cccc(Br)c3)c2cc1OCC", "residual activity": "89.7%"}

---

target: MAP4K5 (human) (UniProt Q9Y4K4); assay: radiometric filter-binding kinase assay, Kinase HotSpot; settings: compound 0.5 µM; ATP 10 µM
Sequence (Q9Y4K4 whole entry, looked up): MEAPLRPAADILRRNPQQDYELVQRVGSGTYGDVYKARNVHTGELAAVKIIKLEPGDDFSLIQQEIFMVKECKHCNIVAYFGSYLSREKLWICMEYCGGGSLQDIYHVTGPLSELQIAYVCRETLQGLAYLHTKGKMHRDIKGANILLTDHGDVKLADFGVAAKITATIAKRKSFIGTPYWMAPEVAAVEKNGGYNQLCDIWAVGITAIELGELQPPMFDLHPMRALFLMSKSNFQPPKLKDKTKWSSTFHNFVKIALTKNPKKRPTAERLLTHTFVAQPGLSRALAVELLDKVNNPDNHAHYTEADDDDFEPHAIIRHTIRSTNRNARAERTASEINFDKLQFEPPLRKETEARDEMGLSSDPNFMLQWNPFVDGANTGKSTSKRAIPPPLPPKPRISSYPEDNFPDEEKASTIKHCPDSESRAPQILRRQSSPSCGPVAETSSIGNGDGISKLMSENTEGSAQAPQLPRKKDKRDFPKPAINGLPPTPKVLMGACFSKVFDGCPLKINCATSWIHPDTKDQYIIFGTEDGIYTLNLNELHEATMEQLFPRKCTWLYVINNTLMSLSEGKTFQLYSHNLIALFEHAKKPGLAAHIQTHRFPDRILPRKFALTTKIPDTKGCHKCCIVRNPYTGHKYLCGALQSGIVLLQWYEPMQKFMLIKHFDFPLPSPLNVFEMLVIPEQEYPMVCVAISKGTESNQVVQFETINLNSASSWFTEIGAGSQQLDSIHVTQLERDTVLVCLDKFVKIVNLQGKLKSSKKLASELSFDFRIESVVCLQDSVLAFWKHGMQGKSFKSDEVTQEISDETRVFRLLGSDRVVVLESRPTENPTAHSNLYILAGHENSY
Below: a set of entries, each annotated with reported residual activity.

{"smilesRecord": "COc1cc2c(N3CCN(C(=O)Nc4ccc(OC(C)C)cc4)CC3)ncnc2cc1OCCCN1CCCCC1", "residual activity [%]": 87.6}
{"smilesRecord": "Cn1cc(/C=C2\\C(=O)Nc3ccc(S(N)(=O)=O)cc32)c2ccccc21", "residual activity [%]": 13.4}
{"smilesRecord": "CCOc1cc2ncnc(Nc3cccc(Br)c3)c2cc1OCC", "residual activity [%]": 47.7}
{"smilesRecord": "N#CCCc1ccc2c(c1)-c1[nH]c3ccc([N+](=O)[O-])cc3c1CC(=O)N2", "residual activity [%]": 7.61}
{"smilesRecord": "O=c1c(-c2ccc(F)cc2)c(-c2ccncc2)[nH]n1-c1ccc(Cl)cc1", "residual activity [%]": 83.1}
{"smilesRecord": "COc1cc2c(cc1OC)-c1[nH]nc(Nc3cccc(F)c3)c1C2", "residual activity [%]": 89}
{"smilesRecord": "O=C1NC(=O)c2c1c1c3ccccc3[nH]c1c1[nH]c3cc(Br)ccc3c21", "residual activity [%]": 42.3}
{"smilesRecord": "c1ccc(-c2cnc(Nc3ccc(OCCN4CCCC4)cc3)s2)cc1", "residual activity [%]": 72.5}
{"smilesRecord": "Nc1ncnc2c1cnn2-c1ccccc1", "residual activity [%]": 87.2}
{"smilesRecord": "O=c1cc(N2CCOCC2)oc2c(-c3ccccc3)cccc12", "residual activity [%]": 92.2}
{"smilesRecord": "CCc1nc(-c2ccc(OC)cc2)[nH]c1-c1ccncc1", "residual activity [%]": 106}
{"smilesRecord": "O=C1NC(=O)c2cc(Nc3ccc(F)cc3)c(Nc3ccc(F)cc3)cc21", "residual activity [%]": 89.5}
{"smilesRecord": "O=C(O)c1ccc2c3c1cccc3c(=O)n1c3ccccc3nc21", "residual activity [%]": 47}
{"smilesRecord": "O=c1c2ccccc2[nH]c(=S)n1CCN1CCC(=C(c2ccc(F)cc2)c2ccc(F)cc2)CC1", "residual activity [%]": 98.8}
{"smilesRecord": "COc1cccc(-c2cc(=O)c3ccccc3o2)c1N", "residual activity [%]": 91.1}
{"smilesRecord": "O=c1[nH]c2ccccc2n1C1CCN(Cc2ccc(-c3nc4cc5[nH]cnc5cc4nc3-c3ccccc3)cc2)CC1", "residual activity [%]": 91.9}
{"smilesRecord": "N/C(=N\\N=C/c1ccc(-c2cccc([N+](=O)[O-])c2)o1)N[N+](=O)[O-]", "residual activity [%]": 109}
{"smilesRecord": "O=C(c1ccccc1)c1ccc(N2CCOCC2)cc1O", "residual activity [%]": 100}
{"smilesRecord": "COc1cc2ncnc(Nc3ccc(O)c(Br)c3)c2cc1OC", "residual activity [%]": 28.9}
{"smilesRecord": "Cc1cc(Nc2nc(-c3ccccc3)nc3ccccc23)n[nH]1", "residual activity [%]": 20.2}
{"smilesRecord": "CCCCc1c(-c2ccc(O)cc2)[nH]c2nccnc12", "residual activity [%]": 65.3}
{"smilesRecord": "FC(F)(F)c1ccc(/C=C/c2nc(COc3ccc(CCCCn4ccnn4)cc3)co2)cc1", "residual activity [%]": 96.5}
{"smilesRecord": "COc1cc2c(Nc3ccc(Br)cc3F)ncnc2cc1OCC1CCN(C)CC1", "residual activity [%]": 37.1}
{"smilesRecord": "O=S(=O)(NCCNC/C=C/c1ccc(Br)cc1)c1cccc2cnccc12", "residual activity [%]": 30.9}
{"smilesRecord": "N#C/C(=C1/Nc2ccccc2S1)c1ccnc(NCCc2cccnc2)n1", "residual activity [%]": 87.5}
{"smilesRecord": "N#Cc1c(NC(=O)c2cccc3ccccc23)sc2c1CCCC2", "residual activity [%]": 93.8}
